The entries below are paired with their reported pH.
# methodDescription: Final pH and average osmolality of API Captisol formulations and API salt solutions
# assayConditions: CapAcid-API Freebase Formulation (70 mg/mL API FB, 1.1 molar equiv CapAcid)
parameterMeasured: pH

>>> value("Cc1cccc(C(=O)C(C)N(C)C)c1 (stereo not shown) [Me-3-MMC]")
6.95
>>> value("CN1CC[C@]23c4c5ccc(O)c4O[C@H]2[C@@H](O)C=C[C@H]3[C@H]1C5 [Morphine, reference compound]")
6.09
>>> value("CNC(C)Cc1cccc(F)c1 (stereo not shown) [Example 3-FMA]")
6.78

====

# methodDescription: physchem
# assayConditions: water, thermodynamic from solid
parameterMeasured: solubility at 48 h (mg/mL)

>>> value("COc1ccc2c(c1)[C@]13CCCC[C@@H]1[C@H](C2)N(C)CC3 [DXM HBr hydrate, dextromethorphan HBr hydrate]")
16.4

====

# methodDescription: Theoretical vs measured osmolarities of API-Cap formulations
# Assay type: physicochemical
# assayConditions: API-Cap Formulations at 70 mg/mL freebase equivalents
So basically: Measured Osmolality at 300 mOsmol/L or higher? That is True. Lower than 300 mOsmol/L? That is False.

>>> assignedcategory("CNC1(c2ccccc2)CCCCC1=O (stereo not drawn)")
"True"
>>> assignedcategory("CNC1(c2ccccc2F)CCCCC1=O (stereo not drawn)")
"True"
>>> assignedcategory("COc1ccc2c(c1)[C@]13CCCC[C@@H]1[C@H](C2)N(C)CC3 [DXM, dextromethorphan, reference compound]")
"False"
>>> assignedcategory("CN1CC[C@]23c4c5ccc(O)c4O[C@H]2[C@@H](O)C=C[C@H]3[C@H]1C5 [Morphine, reference compound]")
"False"
>>> assignedcategory("CNC(C)Cc1ccc2occc2c1 (stereo not drawn)")
"False"
>>> assignedcategory("CN1CCC[C@H]1c1cccnc1 [Nicotine, S-(−)-nicotine, reference compound]")
"True"
>>> assignedcategory("NC1Cc2ccc(I)cc2C1 (stereo not drawn) [Example 5-IAI, 5-iodo-2,3-dihydro-JH-inden-2-amine]")
"False"
>>> assignedcategory("CNC(C)Cc1cccc(F)c1 (stereo not drawn)")
"True"

====

The entries below are paired with their reported pH.
# methodDescription: Final pH and average osmolality of API Captisol formulations and API salt solutions
# assayConditions: Captisol-API HCl salt formulation (70 mg/mL API HCl salt in FB equiv, 1.1 molar equiv Captisol in CapAcid equiv)
parameterMeasured: pH

>>> value("CNC1(c2ccccc2)CCCCC1=O (stereo not shown) [DCK, 2-(methylamino)-2-phenylcyclohexan-1-one]")
6.98
>>> value("CCN(CC)CC(=O)Nc1c(C)cccc1C [Lidocaine, reference compound]")
6.95
>>> value("NC1Cc2ccc(I)cc2C1 (stereo not shown) [Example 5-IAI, 5-iodo-2,3-dihydro-JH-inden-2-amine]")
6.98
>>> value("CNC(C)Cc1ccc2occc2c1 (stereo not shown) [Example 5-MAPB]")
7.15
>>> value("CNC(C)C(=O)c1cccc(C)c1 (stereo not shown) [Example 3-MMC, 2-(methylamino)-1-(m-tolyl)propan-1-one]")
6.98
>>> value("CNC(C)Cc1cccc(F)c1 (stereo not shown) [Example 3-FMA]")
7.01
>>> value("Cc1cccc(C(=O)C(C)N(C)C)c1 (stereo not shown) [Me-3-MMC]")
7.00

====

The entries below are paired with their reported Volume of Base need for Precipitation.
# methodDescription: Forced precipitation of API HCl salt and API FB-CapAcid formulation with 2M NaOH
# Format: physicochemical
# assayConditions: 70 mg/mL API in FB equivalents, 1 mL scale, 1 μL increments of 2M NaOH, starting pH 7.0±0.1
Structures can show the parent of a compound that is named as a salt. Marks after values point to notes of the source that are not given here.
parameterMeasured: Volume of Base need for Precipitation

>>> value("CNC(C)Cc1ccc2occc2c1.Cl (stereo not shown) [5-MAPB HCl]")
"47* μL"
>>> value("CCN(CC)CC(=O)Nc1c(C)cccc1C [Lidocaine HCl, reference compound]")
"5 µL"
>>> value("CNC(C)Cc1cccc(F)c1.Cl (stereo not shown) [3-FMA HCl]")
"37 µL"
>>> value("Cc1cccc(C(=O)C(C)N(C)C)c1.Cl (stereo not shown) [Me-3-MMC HCl, Me-3-MMC hydrochloride]")
"6.5* μL"

====

# methodDescription: Final pH and average osmolality of API Captisol formulations and API salt solutions
# assayConditions: API HCl salt (70 mg/mL in FB equiv)
So basically: Osmolality at 600 mOsm/kg or higher? That is TRUE. Lower than 600 mOsm/kg? That is FALSE.

>>> assignedcategory("CNC(C)Cc1cccc(F)c1 (stereo not shown)")
"TRUE"
>>> assignedcategory("CNC1(c2ccccc2F)CCCCC1=O (stereo not shown)")
"FALSE"
>>> assignedcategory("CNC(C)C(=O)c1cccc(C)c1 (stereo not shown)")
"TRUE"
>>> assignedcategory("CNC(C)Cc1ccc2occc2c1 (stereo not shown)")
"FALSE"
>>> assignedcategory("Cc1cccc(C(=O)C(C)N(C)C)c1 (stereo not shown)")
"FALSE"
>>> assignedcategory("CCN(CC)CC(=O)Nc1c(C)cccc1C [Lidocaine, reference compound]")
"FALSE"

====

The entries below are paired with their reported pH.
# methodDescription: Final pH and average osmolality of API Captisol formulations and API salt solutions
# assayConditions: API HCl salt (70 mg/mL in FB equiv)
parameterMeasured: pH

>>> value("Cc1cccc(C(=O)C(C)N(C)C)c1 (stereo not shown) [Me-3-MMC]")
4.44
>>> value("CNC(C)C(=O)c1cccc(C)c1 (stereo not shown) [Example 3-MMC, 2-(methylamino)-1-(m-tolyl)propan-1-one]")
4.76
>>> value("CCN(CC)CC(=O)Nc1c(C)cccc1C [Lidocaine, reference compound]")
4.60
>>> value("CNC1(c2ccccc2)CCCCC1=O (stereo not shown) [DCK, 2-(methylamino)-2-phenylcyclohexan-1-one]")
4.73
>>> value("CNC1(c2ccccc2F)CCCCC1=O (stereo not shown) [Example 2-F-DCK]")
4.27
>>> value("CNC(C)Cc1ccc2occc2c1 (stereo not shown) [Example 5-MAPB]")
3.16
>>> value("CNC(C)Cc1cccc(F)c1 (stereo not shown) [Example 3-FMA]")
5.17

====

# methodDescription: Final pH and average osmolality of API Captisol formulations and API salt solutions
# assayConditions: Captisol-API HCl salt formulation (70 mg/mL API HCl salt in FB equiv, 1.1 molar equiv Captisol in CapAcid equiv)
Marks after values point to notes of the source that are not given here.
The entries below are paired with their reported Osmolality.
parameterMeasured: Osmolality

>>> value("CNC1(c2ccccc2)CCCCC1=O (centres unmarked) [DCK, 2-(methylamino)-2-phenylcyclohexan-1-one]")
"1,086 mOsm/kg"
>>> value("CCN(CC)CC(=O)Nc1c(C)cccc1C [Lidocaine, reference compound]")
"844 mOsm/kg"
>>> value("CNC1(c2ccccc2F)CCCCC1=O (centres unmarked) [Example 2-F-DCK]")
"1,046 mOsm/kg"
>>> value("NC1Cc2ccc(I)cc2C1 (centres unmarked) [Example 5-IAI, 5-iodo-2,3-dihydro-JH-inden-2-amine]")
"621 mOsm/kg"
>>> value("CNC(C)Cc1ccc2occc2c1 (centres unmarked) [Example 5-MAPB]")
"1,004 mOsm/kg"
>>> value("CNC(C)C(=O)c1cccc(C)c1 (centres unmarked) [Example 3-MMC, 2-(methylamino)-1-(m-tolyl)propan-1-one]")
"1,190* mOsm/kg"
>>> value("Cc1cccc(C(=O)C(C)N(C)C)c1 (centres unmarked) [Me-3-MMC]")
"1,151 mOsm/kg"
>>> value("CNC(C)Cc1cccc(F)c1 (centres unmarked) [Example 3-FMA]")
"1,388 mOsm/kg"

====

The entries below are paired with their reported pH.
# methodDescription: Final pH and average osmolality of API Captisol formulations and API salt solutions
# assayConditions: CapAcid-API Freebase Formulation (70 mg/mL API FB, 1.1 molar equiv CapAcid)
parameterMeasured: pH

>>> value("CNC1(c2ccccc2F)CCCCC1=O (centres unmarked) [Example 2-F-DCK]")
6.97
>>> value("CNC(C)C(=O)c1cccc(C)c1 (centres unmarked) [Example 3-MMC, 2-(methylamino)-1-(m-tolyl)propan-1-one]")
6.99
>>> value("CCN(CC)CC(=O)Nc1c(C)cccc1C [Lidocaine, reference compound]")
6.99
>>> value("CNS(=O)(=O)Cc1ccc2[nH]cc(CCN(C)C)c2c1 [Sumatriptan, reference compound]")
7.06
>>> value("NC1Cc2ccc(I)cc2C1 (centres unmarked) [Example 5-IAI, 5-iodo-2,3-dihydro-JH-inden-2-amine]")
6.97
>>> value("CNC(C)Cc1ccc2occc2c1 (centres unmarked) [Example 5-MAPB]")
7.10
>>> value("CNC1(c2ccccc2)CCCCC1=O (centres unmarked) [DCK, 2-(methylamino)-2-phenylcyclohexan-1-one]")
7.00
>>> value("COc1ccc2c(c1)[C@]13CCCC[C@@H]1[C@H](C2)N(C)CC3 [DXM, dextromethorphan, reference compound]")
6.95
